Data origin, for the record: ChEMBL document CHEMBL5360533

measured.target: 5'-nucleotidase (Homo sapiens)
test.summary: Inhibition of human N-terminal Ecto-5'-nucleotidase
log10 of IC50 values by entry
Scale: log10; quantity: IC50; unit before log: nM

{"chemical.structure": "Fc1cccc(-c2ccc3nc(C(F)(F)F)cc(Cl)c3c2)c1", "log10 of IC50": 3.25}
{"chemical.structure": "C=Cn1cc[n+](Cc2ccc(O)c(C=O)c2)c1", "log10 of IC50": 3.06}
{"chemical.structure": "COc1ccc(-c2ccc3nc(C(F)(F)F)cc(-c4ccc(OC)cc4)c3c2)cc1", "log10 of IC50": 3.05}

Under 5'-nucleotidase (Homo sapiens), report log10 of IC50 for O=C(Nc1ccncc1)c1ccc(Cl)cc1
2.46

Under 5'-nucleotidase (Homo sapiens), report log10 of IC50 for Cc1ccc(-n2cc(C#N)c3cc4c(=O)oc5ccc(C)cc5c4nc32)cc1
2.20

Under 5'-nucleotidase (Homo sapiens), report log10 of IC50 for CC(=O)c1sc(N/N=C/c2ccc(N(C)C)cc2)nc1C
2.51

Under 5'-nucleotidase (Homo sapiens), report log10 of IC50 for CC(=O)c1sc(N/N=C/c2cc3ccccc3[nH]2)nc1C
2.51

Under 5'-nucleotidase (Homo sapiens), report log10 of IC50 for Fc1cccc(-c2ccc3nc(C(F)(F)F)cc(-c4cccc(F)c4)c3c2)c1
3.08

Under 5'-nucleotidase (Homo sapiens), report log10 of IC50 for CC(=O)c1sc(N/N=C/c2ccc[nH]2)nc1C
2.51

Under 5'-nucleotidase (Homo sapiens), report log10 of IC50 for FC(F)(F)c1cc(Cl)c2cc(Br)ccc2n1
3.24

Under 5'-nucleotidase (Homo sapiens), report log10 of IC50 for O=c1c(O)c(-c2ccc(O)c(O)c2)oc2cc(O)cc(O)c12
4.66

Under 5'-nucleotidase (Homo sapiens), report log10 of IC50 for COc1ccc(CN(C)C(=O)Nc2sc3c(c2C(=O)OC(C)(C)C)CCN(Cc2ccccc2)C3)cc1OC
4.66

Under 5'-nucleotidase (Homo sapiens), report log10 of IC50 for COc1cccc(COc2ccc(/C=N/N3C(=O)CNC3=S)cc2)c1
2.45

Under 5'-nucleotidase (Homo sapiens), report log10 of IC50 for Cc1nn(-c2ccccc2)c2nc(-c3ccccc3O)ccc12
4.41

---

cytotoxicity at 24 h, 100 µM values by entry
test.summary: Cytotoxicity against hamster BHK-21 cells assessed as inhibition of cell viability at 100 uM measured after 24 hrs by MTT assay
Type: toxicity, cell-based, Mesocricetus auratus
experimental.setup: read-out: INH
Numeric answer only, unit % assumed.

# annotated cases, reported cytotoxicity at 24 h, 100 µM shown
{"chemical.structure": "COc1cccc(COc2ccc(/C=N/N3C(=O)CNC3=S)cc2)c1", "unit.symbol": "%", "numeric.value": 4.31}
{"chemical.structure": "O=C1CNC(=S)N1/N=C/c1ccc(Br)s1", "unit.symbol": "%", "numeric.value": 4.31}

Assign cytotoxicity at 24 h, 100 µM to the following record: COc1cc(/C=N/N2C(=O)CNC2=S)cc(OC)c1OC
4.31

---

measured.target: 5'-nucleotidase (Homo sapiens, UniProt P21589)
Sequence (P21589 whole entry): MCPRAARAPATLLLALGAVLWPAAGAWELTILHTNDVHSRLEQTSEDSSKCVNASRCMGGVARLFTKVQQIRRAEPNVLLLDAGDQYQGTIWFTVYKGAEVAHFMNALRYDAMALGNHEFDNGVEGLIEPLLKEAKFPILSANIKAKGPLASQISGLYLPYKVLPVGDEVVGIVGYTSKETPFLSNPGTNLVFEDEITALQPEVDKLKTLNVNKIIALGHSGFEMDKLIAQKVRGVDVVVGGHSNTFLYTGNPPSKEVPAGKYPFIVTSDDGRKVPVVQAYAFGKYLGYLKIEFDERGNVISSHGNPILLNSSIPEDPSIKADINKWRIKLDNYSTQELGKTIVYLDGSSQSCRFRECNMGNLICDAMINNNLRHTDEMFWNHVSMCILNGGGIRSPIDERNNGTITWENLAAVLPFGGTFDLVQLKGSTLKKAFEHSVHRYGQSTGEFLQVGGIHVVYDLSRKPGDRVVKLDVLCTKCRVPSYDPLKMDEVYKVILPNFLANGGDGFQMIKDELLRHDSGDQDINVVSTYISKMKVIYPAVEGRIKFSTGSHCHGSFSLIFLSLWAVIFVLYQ
test.summary: Inhibition of human recombinant CD73
reported.metric: IC50 (µM)
Numeric answer only, unit µM assumed.

# annotated cases, reported IC50 shown
{"compound": "O=S1(=O)NC(Nc2cccc3[nH]ncc23)=Nc2c1cc(Cl)c(F)c2O", "measured.target": "5'-nucleotidase (Homo sapiens, UniProt P21589)", "IC50 [µM]": 0.015}
{"compound": "Cc1cc2c(cc1O)c(=O)oc1cc(/C=C/c3ccc(O)c(O)c3)oc(=O)c12", "measured.target": "5'-nucleotidase (Homo sapiens, UniProt P21589)", "IC50 [µM]": 35.1}
{"compound": "CC1=CC(=O)C2(C=C(c3cc4oc(=O)c5cc(O)c(O)cc5c4c(=O)o3)c3cc(O)c(O)cc32)O1 (stereo not given)", "measured.target": "5'-nucleotidase (Homo sapiens, UniProt P21589)", "IC50 [µM]": 6.72}
{"compound": "Nc1ncnc2c1ncn2[C@@H]1O[C@H](COC(C(=O)O)P(=O)(O)O)[C@@H](O)[C@H]1O (stereo not given in full)", "measured.target": "5'-nucleotidase (Homo sapiens, UniProt P21589)", "IC50 [µM]": 19}

Next compound, IC50 to be filled in.
Assign IC50 to the following record: O=c1oc(/C=C/c2ccc(O)c(O)c2)cc2oc3cc(O)c(O)cc3c12 [PHELLIBAUMIN A]
17.1
